Test system: SK-MEL-28
Test: NCI tumour cell line growth inhibition, 48 h
Active and inactive are the calls of the source. Rule as the data show it: active = GI50 up to about 1.1 µM and inactive = higher. *1 amine or outer side, *2 acyl side, *3 side chain or, on linkers, in order; H or OH if unused. Where a SMILES comes first, the peptide text is derived from it. Bridges are numbered along the chain shown (N, C = ends). [ ]: non-standard residue; d: D form. The star is where a group is joined. X36 = O=C(C(CCCCNO[*:3])N[*:1])[*:2]; Fmoc = O=C(OCC1c2ccccc2-c2ccccc21)*
For each record, write down the corresponding GI50.

Each of the following entries comes with a recorded value; kindly state GI50 for each.
1. CCOC(=O)C(=CNc1ccc(F)c(F)c1)C(=O)OCC
2. O=C1CCC2(O)c3ccccc3C2Cc2ccccc21 (centres undefined)
3. NC(=O)CNC(=O)C1CCCN1C(=O)C1CCCCNOC(=O)CCC(NC(=O)OCC2c3ccccc3-c3ccccc32)C(=O)NC(Cc2c[nH]c3ccccc23)C(=O)N1 (centres undefined) (Fmoc-EW[X36]PG-NH2; ester 1-3; configuration not given here)
4. CN(C)CCSc1cc(-c2ccccc2)c2ccccc2n1
5. [O-][S+](c1ccccc1)c1ccc(/N=N/O)nc1 (centres undefined)

(A)
1. > 100 µM (inactive)
2. > 100 µM (inactive)
3. > 100 µM (inactive)
4. 4.7 µM (inactive)
5. > 100 µM (inactive)
